Reference for the values: patent US8268827B2

Each record here notes measured IC50.
- study system: PARP-1 (Homo sapiens, UniProt P09874)
- Construct: purchased Trevigen 4668-500-01
- Sequence (P09874 whole entry): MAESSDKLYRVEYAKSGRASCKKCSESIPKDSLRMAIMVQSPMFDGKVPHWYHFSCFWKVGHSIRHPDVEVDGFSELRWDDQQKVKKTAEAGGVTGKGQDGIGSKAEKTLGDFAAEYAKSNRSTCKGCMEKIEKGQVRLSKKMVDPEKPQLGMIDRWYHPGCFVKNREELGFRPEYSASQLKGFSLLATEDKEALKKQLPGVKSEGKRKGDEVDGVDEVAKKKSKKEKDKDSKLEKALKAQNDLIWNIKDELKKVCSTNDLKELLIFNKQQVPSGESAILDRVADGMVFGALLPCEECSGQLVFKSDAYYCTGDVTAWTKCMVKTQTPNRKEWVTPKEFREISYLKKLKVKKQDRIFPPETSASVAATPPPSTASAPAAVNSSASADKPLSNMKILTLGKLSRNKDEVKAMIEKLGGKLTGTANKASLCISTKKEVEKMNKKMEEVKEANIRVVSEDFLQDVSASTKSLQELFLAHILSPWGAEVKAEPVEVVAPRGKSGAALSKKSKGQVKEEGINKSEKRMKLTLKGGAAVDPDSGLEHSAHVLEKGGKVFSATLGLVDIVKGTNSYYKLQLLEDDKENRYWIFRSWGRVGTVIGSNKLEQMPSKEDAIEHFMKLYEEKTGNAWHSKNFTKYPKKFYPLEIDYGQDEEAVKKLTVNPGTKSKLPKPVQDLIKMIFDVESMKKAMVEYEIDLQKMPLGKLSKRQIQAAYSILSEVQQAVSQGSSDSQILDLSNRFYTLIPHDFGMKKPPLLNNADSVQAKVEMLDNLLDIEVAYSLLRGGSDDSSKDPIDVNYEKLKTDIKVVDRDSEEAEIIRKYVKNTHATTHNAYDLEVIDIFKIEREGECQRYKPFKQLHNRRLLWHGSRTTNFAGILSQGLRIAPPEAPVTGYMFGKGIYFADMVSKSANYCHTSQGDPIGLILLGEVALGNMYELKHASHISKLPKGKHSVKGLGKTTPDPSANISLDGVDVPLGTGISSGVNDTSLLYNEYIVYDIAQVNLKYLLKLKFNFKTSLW
- test protocol: PARP-1 SPA assay
- Type: biochemical
Structures can show the parent of a compound that is named as a salt.

Cc1c(Cc2ccc(F)c(C(=O)N3CCN(C4CCCOC4)C(=O)C3)c2)n[nH]c(=O)c1C(F)(F)F (stereo not shown) [Example 141, trifluoroacetate] :: 5 to 25 nM
C[C@@H]1CCC[C@H]2CN(C(=O)c3cc(Cc4cc(C(F)(F)F)c(=O)[nH]n4)ccc3F)CC(=O)N21 (racemic) [Example 87, trifluoroacetate] :: 5 to 25 nM
Cc1c(Cc2ccc(F)c(C(=O)N3CC(=O)N(c4ccc(F)cc4)C(C)C3)c2)n[nH]c(=O)c1C (racemic) [Example 79, trifluoroacetate] :: < 5 nM
CCc1cc(Cc2ccc(F)c(C(=O)N3CCN([C@@H]4CCCOC4)C(=O)C3)c2)n[nH]c1=O :: 5 to 25 nM
Cc1c(Cc2ccc(F)c(C(=O)N3CCN(C4CCCCC4)C(=O)C3(C)C)c2)n[nH]c(=O)c1C [Example 37, trifluoroacetate] :: 25 to 150 nM
Cc1c(Cc2ccc(F)c(C(=O)N3CC(=O)N(c4ccccc4)C(C)(C)C3)c2)n[nH]c(=O)c1C :: < 5 nM

[in] Given the molecule Cc1c(Cc2ccc(F)c(C(=O)N3CCN(c4ccc(S(C)(=O)=O)cc4)C(=O)C3)c2)n[nH]c(=O)c1C [Example 95, trifluoroacetate] , write its reported IC50.
[out] < 5 nM

[in] Please report IC50 for the following molecule: CCN1C(=O)CN(C(=O)c2cc(Cc3n[nH]c(=O)c(C)c3C)ccc2F)CC1C (stereo not shown) [Example 137, trifluoroacetate]
[out] 5 to 25 nM

[in] Given the molecule Cc1c(Cc2ccc(F)c(C(=O)N3CCN(C4CCC4)C(=O)C3)c2)n[nH]c(=O)c1C [Example 57, trifluoroacetate] , write its reported IC50.
[out] 5 to 25 nM

[in] Note IC50 for the molecule shown: Cc1c(Cc2ccc(F)c(C(=O)N3CCN(C4CC(F)(F)C4)C(=O)C3)c2)n[nH]c(=O)c1C [Example 55, trifluoroacetate]
[out] 5 to 25 nM

[in] Fill in reported IC50 for this entry: Cc1c(Cc2ccc(F)c(C(=O)N3CCN(C4CCCCC4)C(=O)C3C)c2)n[nH]c(=O)c1C (stereo not shown) [Example 35, trifluoroacetate]
[out] 5 to 25 nM

[in] Please look at this molecule and report its IC50: Cc1c(Cc2ccc(F)c(C(=O)N3CC(=O)N(C4CCC4)[C@@H](C)C3)c2)n[nH]c(=O)c1C
[out] 5 to 25 nM

[in] Tell me measured IC50 for Cc1c(Cc2ccc(F)c(C(=O)N3CCN(c4cc(C(F)(F)F)ccn4)C(=O)C3)c2)n[nH]c(=O)c1C [Example 61, trifluoroacetate] please.
[out] 5 to 25 nM

----------
Attribute: CC50
- Tested on: BRCA-1 silenced HeLa cells (HeLa shBRCA1-GFP)
- test protocol: Proliferation assay in BRCA-1 silenced HeLa cells
- Format: cell-based
- condition parameters: Homo sapiens; BRCA1 silenced HeLa cells, 168 hours; read-out: CC50 in the BRCA1 silenced HeLa cells
Structures can show the parent of a compound that is named as a salt.

Cc1c(Cc2ccc(F)c(C(=O)N3CC(=O)N4[C@@H](CCC[C@H]4C)C3)c2)n[nH]c(=O)c1C (racemic) [Example 85, trifluoroacetate] :: < 50 nM
Cc1c(Cc2ccc(F)c(C(=O)N3CCN(C4CCCOC4)C(=O)C3)c2)n[nH]c(=O)c1C(F)(F)F (stereo not drawn) [Example 141, trifluoroacetate] :: < 50 nM

[in] State, for BRCA-1 silenced HeLa cells (HeLa shBRCA1-GFP), measured CC50 of the compound listed here: Cc1c(Cc2ccc(F)c(C(=O)N3CC(=O)N(C4CCCC4)[C@H](C)C3)c2)n[nH]c(=O)c1C
[out] < 5000 nM
